- subject.of.test: T1, IL-1β-his-bio (human, UniProt P01584 117-269, biotinylated, sites not stated)
- T1 construct: also called biotinylated IL1b-His
- protocol.summary: ELISA, IL-1β-his-bio captured on streptavidin plate
parameter: pEC50
Conceptually, pEC50 converts a concentration in mol/L into minus its log10.

Exercise: Entry murine antibody KF021ZP4 19E4 (antibody, V domains shown, Mouse monoclonal antibody from hybridoma supernatant) VH: DVQLVESGGGLVQPGGSRKLSCAASGFTFSTFGMHWVRQAPEKGLEWVAYISSGSYTIYYADTVRGRFTISRDNPKNTLFLQMTSLRSEDTAMYYCARDDYDVSYYAMDYWGQGTSVTVSS VL: DIVLTQSPASLAVSLGQRATISCRASESVEYYGTSLMQWYQQKPGQPPKLLIYAASNVESGVPARFSGSGSGTDFSLNIHPVEEDDIAMYFCQQSRKVPSLTFGAGTKLELK needs its pEC50 filled in; supply it.
Solution: 9.14

Exercise: Entry Positive control antibody PcAb (antibody, human IgG1, kappa, V domains shown, also called KF021ZP4 PcAb; KF021ZP4 PCAb) VH: QVQLVESGGGVVQPGRSLRLSCAASGFTFSVYGMNWVRQAPGKGLEWVAIIWYDGDNQYYADSVKGRFTISRDNSKNTLYLQMNGLRAEDTAVYYCARDLRTGPFDYWGQGTLVTVSS VL: EIVLTQSPDFQSVTPKEKVTITCRASQSIGSSLHWYQQKPDQSPKLLIKYASQSFSGVPSRFSGSGSGTDFTLTINSLEAEDAAAYYCHQSSSLPFTFGPGTKVDIKR needs its pEC50 filled in; supply it.
Solution: 10.21

Exercise: Entry murine antibody KF021ZP4 9D5 (antibody, V domains shown, Mouse monoclonal antibody from hybridoma supernatant) VH: DVQLVESGGGLVQPGGSRKLSCAASGFTFSTFGMHWVRQAPEKGLEWVAYISSGSYTTYYADTVRGRFTISRDNPKNTLFLQMTSLRSEDTAMYYCARDDYDVSNYVMDYWGQGTSVTVSS VL: DIVLTQSPASLAVSLGQRATISCRASESVEYYGTSLMQWYQQKPGQPPKLLIYAASNVESGVPARFTGSGSGTVFSLNIHPVEEDDIAMYFCQQSRKVPSLTFGAGTKLELK needs its pEC50 filled in; supply it.
Solution: 10.44

Exercise: Entry murine antibody KF021ZP4 18H11 (antibody, V domains shown, Mouse monoclonal antibody from hybridoma supernatant) VH: EVQLQQSGPELVKTGASVKISCKASGYLFTGYYMHWVKQSHGKSLEWIGFISCYNGDTTYNQKFKDKATFTVDTSSNTAYMQFNSLTSEDSAVYYCSRSDYYGTSDYWGQGTTLTVSS VL: QIVLTQSPAIMSASPGEKVTITCSASSSVSYMHWFQQKPGTSPKLWIYTTSTLASGVPARFSGSGSGTSYSLTISRMEAEDAATYYCQQRIIYPPTFGGGTKLEIK needs its pEC50 filled in; supply it.
Solution: 9.76
